Quick reference: IC50 of the listed items.
- tested-system: Leucine-rich repeat serine/threonine-protein kinase 2 (Homo sapiens)
- Sequence (Q5S007 whole entry, the tested form may be a part): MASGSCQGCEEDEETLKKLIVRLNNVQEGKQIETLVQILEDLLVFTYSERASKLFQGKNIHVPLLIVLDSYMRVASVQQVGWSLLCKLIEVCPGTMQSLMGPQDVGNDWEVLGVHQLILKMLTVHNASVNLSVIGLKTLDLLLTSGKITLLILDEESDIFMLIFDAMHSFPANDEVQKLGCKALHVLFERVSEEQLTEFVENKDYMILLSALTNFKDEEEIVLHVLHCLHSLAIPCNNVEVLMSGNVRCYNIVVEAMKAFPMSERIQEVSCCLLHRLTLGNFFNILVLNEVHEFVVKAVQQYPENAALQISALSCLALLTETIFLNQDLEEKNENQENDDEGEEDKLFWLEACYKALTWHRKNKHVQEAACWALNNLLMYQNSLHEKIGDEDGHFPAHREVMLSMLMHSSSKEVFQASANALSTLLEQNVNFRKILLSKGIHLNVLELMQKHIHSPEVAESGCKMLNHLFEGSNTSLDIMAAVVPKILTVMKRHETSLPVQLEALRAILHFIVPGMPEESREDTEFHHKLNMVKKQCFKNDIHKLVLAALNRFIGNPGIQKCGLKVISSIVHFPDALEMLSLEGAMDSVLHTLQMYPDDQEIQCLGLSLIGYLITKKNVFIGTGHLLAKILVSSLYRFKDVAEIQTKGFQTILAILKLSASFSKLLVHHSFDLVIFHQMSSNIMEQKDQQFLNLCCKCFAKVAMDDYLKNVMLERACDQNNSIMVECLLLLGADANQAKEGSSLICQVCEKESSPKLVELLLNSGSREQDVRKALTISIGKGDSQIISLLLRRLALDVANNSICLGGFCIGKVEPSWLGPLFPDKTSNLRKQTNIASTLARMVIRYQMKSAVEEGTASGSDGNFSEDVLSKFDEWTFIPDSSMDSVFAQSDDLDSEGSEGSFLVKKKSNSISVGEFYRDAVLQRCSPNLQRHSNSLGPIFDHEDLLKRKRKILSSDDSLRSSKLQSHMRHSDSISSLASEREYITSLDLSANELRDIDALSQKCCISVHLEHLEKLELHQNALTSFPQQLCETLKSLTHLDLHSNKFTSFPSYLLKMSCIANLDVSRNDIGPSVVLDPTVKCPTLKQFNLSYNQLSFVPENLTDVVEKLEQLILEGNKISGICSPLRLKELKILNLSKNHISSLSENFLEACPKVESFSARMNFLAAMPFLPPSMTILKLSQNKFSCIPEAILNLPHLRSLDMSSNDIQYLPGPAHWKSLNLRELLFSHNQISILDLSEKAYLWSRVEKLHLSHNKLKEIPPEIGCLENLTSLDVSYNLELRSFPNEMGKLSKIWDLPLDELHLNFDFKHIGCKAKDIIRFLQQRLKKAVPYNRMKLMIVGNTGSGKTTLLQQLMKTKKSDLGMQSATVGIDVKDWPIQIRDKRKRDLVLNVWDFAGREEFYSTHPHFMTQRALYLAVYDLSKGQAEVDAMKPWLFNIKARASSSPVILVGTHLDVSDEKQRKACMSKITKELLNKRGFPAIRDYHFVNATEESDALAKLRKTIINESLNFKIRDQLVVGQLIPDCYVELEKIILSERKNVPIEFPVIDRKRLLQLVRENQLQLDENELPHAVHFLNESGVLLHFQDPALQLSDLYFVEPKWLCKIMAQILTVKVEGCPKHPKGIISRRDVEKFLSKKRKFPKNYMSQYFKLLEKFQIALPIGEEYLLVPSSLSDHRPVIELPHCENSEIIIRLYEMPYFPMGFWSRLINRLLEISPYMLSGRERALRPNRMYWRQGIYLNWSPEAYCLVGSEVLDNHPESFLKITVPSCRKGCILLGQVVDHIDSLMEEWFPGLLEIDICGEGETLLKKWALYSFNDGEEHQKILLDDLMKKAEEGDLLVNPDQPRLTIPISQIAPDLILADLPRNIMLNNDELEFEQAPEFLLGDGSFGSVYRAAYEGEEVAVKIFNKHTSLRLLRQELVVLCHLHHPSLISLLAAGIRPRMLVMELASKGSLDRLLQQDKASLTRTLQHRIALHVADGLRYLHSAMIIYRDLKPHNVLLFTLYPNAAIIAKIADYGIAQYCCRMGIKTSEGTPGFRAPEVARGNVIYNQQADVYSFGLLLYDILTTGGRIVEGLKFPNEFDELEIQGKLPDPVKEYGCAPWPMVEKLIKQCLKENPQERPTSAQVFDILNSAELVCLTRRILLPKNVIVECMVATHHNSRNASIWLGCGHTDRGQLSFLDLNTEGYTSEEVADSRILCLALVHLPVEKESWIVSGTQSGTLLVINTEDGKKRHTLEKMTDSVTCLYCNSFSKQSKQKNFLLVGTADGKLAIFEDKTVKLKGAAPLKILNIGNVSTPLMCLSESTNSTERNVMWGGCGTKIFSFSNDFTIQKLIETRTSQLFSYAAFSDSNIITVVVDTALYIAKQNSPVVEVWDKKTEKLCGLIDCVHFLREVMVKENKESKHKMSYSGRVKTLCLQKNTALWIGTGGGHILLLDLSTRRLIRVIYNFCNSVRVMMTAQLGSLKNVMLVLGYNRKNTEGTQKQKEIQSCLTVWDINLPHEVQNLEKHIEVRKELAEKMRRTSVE
- measurement-protocol: Inhibition of recombinant human GST-tagged LRRK2 (970 to 2527 residues) expressed in baculovirus expression system using LRRKtide as substrate incubated for 60 mins by Adapta assay
Answer with a number only, understood to be in µM.

Use the examples below as a reference point.
O=C(Nc1c[nH]nc1-c1cc2ccccc2cc1OC(F)F)c1cnn2cccnc12 : 0.18
O=C(Nc1c[nH]nc1-c1cc(Cl)ccc1OC(F)F)c1cncc2c[nH]nc12 : 0.079

Now look at this entry.
The compound "O=C(Nc1c[nH]nc1-c1cc(Cl)ccc1OC(F)F)c1cnn2cccnc12" , when measured on Leucine-rich repeat serine/threonine-protein kinase 2 (Homo sapiens), yielded IC50 of 0.018

###

The entries below come with measured Ratio IC50 values attached.
- Species: Homo sapiens
API doc: respond with a numeric literal and nothing else, no unit.

// below: answered compounds
O=C(Nc1c[nH]nc1-c1cc2ccccc2cc1OC(F)F)c1cnn2cccnc12 : 83
Cn1cc(NC(=O)c2cnn3cccnc23)c(-c2cc(Cl)ccc2OC(F)F)n1 : 47
O=C(Nc1c[nH]nc1-c1cc(Cl)ccc1OC(F)F)c1cncc2c[nH]nc12 : 41

Entry "O=C(Nc1c[nH]nc1-c1cc(Cl)ccc1OC(F)F)c1cnn2cccnc12" ; Ratio IC50 = 15

###

- measurement-protocol: Lipophilicity, logD of compound
- Assay type: physicochemical
- assay-setup: octanol/water
value-type: logD
Answer as a number with no unit attached.

In the examples that follow, each entry is paired with its recorded logD.
O=C(Nc1c[nH]nc1-c1cc(Cl)ccc1OC(F)F)c1cnn2cccnc12 : 3.2
O=C(Nc1c[nH]nc1-c1cc2ccccc2cc1OC(F)F)c1cnn2cccnc12 : 3.5
O=C(Nc1c[nH]nc1-c1cc(I)ccc1OC(F)F)c1cnn2cccnc12 : 3.4
O=C(Nc1c[nH]nc1-c1cc(Br)ccc1OC(F)F)c1cnn2cccnc12 : 3.2
Cn1cc(NC(=O)c2cnn3cccnc23)c(-c2cc(Cl)ccc2OC(F)F)n1 : 3

Summary for this compound, "O=C(Nc1c[nH]nc1-c1cc2cn[nH]c2cc1OC(F)F)c1cnn2cccnc12" : logD is 1.6

Noted for "O=C(Nc1c[nH]nc1-c1cc(Cl)ccc1OC(F)F)c1cncc2c[nH]nc12" : its logD reads 2.7

According to the records, this compound "Nc1nn2cccnc2c1C(=O)Nc1c[nH]nc1-c1cc(Cl)ccc1OC(F)F" displays logD of 3.3

Recorded result, "Cn1cc(NC(=O)c2cnn3cccnc23)c(-c2cc(Cl)ccc2Cl)n1" , logD: 2.9

###

- measurement-protocol: Metabolic stability in human liver microsomes assessed as intrinsic clearance at 1 uM measured upto 60 mins by LC-MS/MS analysis
- Type: ADME, Microsome
- assay-setup: read-out: CLH
value-type: CLint scaled at 1 µM (mL/min/kg)
Form entry: value (mL/min/kg) — number only.

O=C(Nc1c[nH]nc1-c1cc(Br)ccc1OC(F)F)c1cnn2cccnc12 : 15
O=C(Nc1c[nH]nc1-c1cc2ccccc2cc1OC(F)F)c1cnn2cccnc12 : 17
O=C(Nc1c[nH]nc1-c1cc2cn[nH]c2cc1OC(F)F)c1cnn2cccnc12 : 4.4

Measured CLint scaled at 1 µM, "O=C(Nc1c[nH]nc1-c1cc(I)ccc1OC(F)F)c1cnn2cccnc12" : 15

Value of CLint scaled at 1 µM reported for the compound "O=C(Nc1c[nH]nc1-c1cc(Cl)ccc1OC(F)F)c1cncc2c[nH]nc12" is 15

The compound listed as "O=C(Nc1c[nH]nc1-c1cc(Cl)ccc1OC(F)F)c1cnn2cccnc12" has a reported CLint scaled at 1 µM of 14

"Nc1nn2cccnc2c1C(=O)Nc1c[nH]nc1-c1cc(Cl)ccc1OC(F)F" has a reported CLint scaled at 1 µM of 11

CLint scaled at 1 µM recorded for this compound, "Cn1cc(NC(=O)c2cnn3cccnc23)c(-c2cc(Cl)ccc2OC(F)F)n1" , is 15

###

# Tyrosine-protein kinase JAK1 (Homo sapiens, UniProt P23458): IC50 values follow
# Sequence (P23458 whole entry): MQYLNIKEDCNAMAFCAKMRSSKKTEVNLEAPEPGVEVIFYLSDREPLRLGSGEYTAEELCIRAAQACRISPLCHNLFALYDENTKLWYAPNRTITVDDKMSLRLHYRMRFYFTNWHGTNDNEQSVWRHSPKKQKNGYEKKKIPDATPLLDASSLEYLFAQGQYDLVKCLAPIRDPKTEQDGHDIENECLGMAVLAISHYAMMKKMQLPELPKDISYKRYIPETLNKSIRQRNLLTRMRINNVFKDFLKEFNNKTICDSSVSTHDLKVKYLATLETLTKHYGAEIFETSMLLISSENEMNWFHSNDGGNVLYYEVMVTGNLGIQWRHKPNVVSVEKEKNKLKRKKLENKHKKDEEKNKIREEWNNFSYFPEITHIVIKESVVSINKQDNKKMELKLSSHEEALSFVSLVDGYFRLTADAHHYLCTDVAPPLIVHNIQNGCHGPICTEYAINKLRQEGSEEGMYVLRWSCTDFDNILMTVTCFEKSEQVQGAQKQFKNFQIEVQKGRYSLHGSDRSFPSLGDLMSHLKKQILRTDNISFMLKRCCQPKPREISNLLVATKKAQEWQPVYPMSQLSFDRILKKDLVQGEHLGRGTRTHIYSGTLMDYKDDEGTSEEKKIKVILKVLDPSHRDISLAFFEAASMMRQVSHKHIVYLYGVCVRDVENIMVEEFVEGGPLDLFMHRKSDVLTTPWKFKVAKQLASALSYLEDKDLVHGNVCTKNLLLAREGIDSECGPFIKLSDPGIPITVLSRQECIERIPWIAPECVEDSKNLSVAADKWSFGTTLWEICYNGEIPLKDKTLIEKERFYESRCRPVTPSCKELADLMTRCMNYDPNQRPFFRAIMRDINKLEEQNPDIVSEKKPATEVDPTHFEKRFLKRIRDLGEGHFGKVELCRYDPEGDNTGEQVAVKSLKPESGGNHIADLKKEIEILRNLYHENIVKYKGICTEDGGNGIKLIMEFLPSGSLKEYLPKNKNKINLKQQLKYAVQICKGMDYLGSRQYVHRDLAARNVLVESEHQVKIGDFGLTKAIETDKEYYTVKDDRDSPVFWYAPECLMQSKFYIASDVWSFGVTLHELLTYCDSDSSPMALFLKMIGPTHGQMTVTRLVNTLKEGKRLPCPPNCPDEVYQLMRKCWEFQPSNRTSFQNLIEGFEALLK
Hi! Could you send only the number? It should be in nM, unit omitted.

Solved cases below.
O=C(Nc1c[nH]nc1-c1cc2ccccc2cc1OC(F)F)c1cnn2cccnc12 : 2.2
O=C(Nc1c[nH]nc1-c1cc(Cl)ccc1OC(F)F)c1cnn2cccnc12 : 1.2

Now look at this entry.
"Cn1cc(NC(=O)c2cnn3cccnc23)c(-c2cc(Cl)ccc2OC(F)F)n1" on Tyrosine-protein kinase JAK1 (Homo sapiens, UniProt P23458) gives IC50 = 1.7

###

Reported values of log10(IC50) for individual entries
- tested-system: Janus Kinase (JAK) (Homo sapiens, UniProt P52333+P23458+O60674+P29597)
- assay-setup: beas-2b
- Description: Inhibition of JAK in human BEAS-2B cells assessed as reduction in IL13-induced STAT6 phosphorylation incubated for 1 hr followed by IL13 addition and measured after 15 mins by immunofluorescence assay
Values below are the log10 of the recorded IC50, with µM as the unit.

Solved entries:
C[C@@H](O)c1nc2cnc3[nH]ccc3c2n1[C@H]1CCCOC1 : -0.68
COc1ccc(Cl)cc1-c1nn(C)cc1NC(=O)c1cncc2cccnc12 : -1.42
O=C(Nc1c[nH]nc1-c1cc(Cl)ccc1OC(F)F)c1cnc2[nH]ccc2n1 : -1.38
O=C(Nc1c[nH]nc1-c1cc(Cl)ccc1OC(F)F)c1cncc2scnc12 : -2.04
COc1ccc(Cl)cc1-c1nn(C)cc1NC(=O)c1cncc2c[nH]nc12 : -1.70

molecule "COc1ccc(Cl)cc1-c1nn(C)cc1NC(=O)c1cncc2cn(C)nc12" , log10(IC50) observed: -1.03

For record "Cc1ccc(OC(F)F)c(-c2n[nH]cc2NC(=O)c2cnn3cccnc23)c1" the listed log10(IC50) is -1.57

log10(IC50) reading for "Cn1cc(NC(=O)c2cnn3cccnc23)c(-c2cc(Cl)ccc2OC(F)F)n1" : -2.33

Looking up "Nc1nn2cccnc2c1C(=O)Nc1c[nH]nc1-c1cc(Cl)ccc1OC(F)F" , I found its log10(IC50) recorded as -2.40

Measured log10(IC50) of "COc1cc2[nH]ncc2cc1-c1n[nH]cc1NC(=O)c1cnn2cccnc12" : -0.43

What the record says about "COc1ccc(Cl)c(F)c1-c1n[nH]cc1NC(=O)c1cnn2cccnc12" : log10(IC50) is -1.82

The value of log10(IC50) measured for the molecule "Cc1cc(Nc2nccc3nc(-c4c(Cl)cc(C#N)cc4Cl)[nH]c23)ncn1" turned out to be 0.11

# log10(IC50) (molecule: "O=C(Nc1c[nH]nc1-c1cc(Cl)ccc1OC(F)F)c1cnc2cccnn12" ) is -2.30

log10(IC50) reported for this molecule "O=C(Nc1c[nH]nc1-c1cc(I)ccc1OC(F)F)c1cnn2cccnc12" : -2.55

###

- tested-system: Janus Kinase (JAK) (Homo sapiens, UniProt P52333+P23458+O60674+P29597)
- assay-setup: beas-2b
value-type: IC50 (µM)
Express it in µM; write the number only.

O=C(Nc1c[nH]nc1-c1cc(F)ccc1OC(F)F)c1cnn2cccnc12 : 0.034
O=C(Nc1c[nH]nc1-c1cc(Cl)ccc1OC1CC1)c1cnn2cccnc12 : 0.021
C#Cc1ccc2ncc(C(=O)Nc3c[nH]nc3-c3cc(Cl)ccc3OC(F)F)n2n1 : 0.013
CCc1ccc(OC(F)F)c(-c2n[nH]cc2NC(=O)c2cnn3cccnc23)c1 : 0.013
O=C(Nc1c[nH]nc1-c1cc(Cl)c(O)cc1OC(F)F)c1cnn2cccnc12 : 0.036

Lookup result for "O=C(Nc1c[nH]nc1-c1cc2cn[nH]c2cc1OC(F)F)c1cnn2cccnc12" ; measured IC50: 0.04

Measured IC50 of "O=C(Nc1c[nH]nc1-c1c(OC(F)F)ccc(Cl)c1F)c1cnn2cccnc12" : 0.014

Looking up "COc1ccc(Cl)cc1-c1nc(C)sc1NC(=O)c1cnn2cccnc12" , I found its IC50 recorded as 0.058

GET /value?item= "COc1cc(F)c(Cl)cc1-c1n[nH]cc1NC(=O)c1cnn2cccnc12" &field=IC50 returns 0.042

IC50 reading for "COc1ccc(Cl)cc1-c1n[nH]cc1NC(=O)c1cnn2cccnc12" : 0.023

Sure, the documented IC50 for "CCOc1ccc(Cl)cc1-c1n[nH]cc1NC(=O)c1cnn2cccnc12" is 0.054

###

Lab note: Ki readings collected with Tyrosine-protein kinase JAK2 (Homo sapiens) for the following compounds.
Sequence (O60674 whole entry): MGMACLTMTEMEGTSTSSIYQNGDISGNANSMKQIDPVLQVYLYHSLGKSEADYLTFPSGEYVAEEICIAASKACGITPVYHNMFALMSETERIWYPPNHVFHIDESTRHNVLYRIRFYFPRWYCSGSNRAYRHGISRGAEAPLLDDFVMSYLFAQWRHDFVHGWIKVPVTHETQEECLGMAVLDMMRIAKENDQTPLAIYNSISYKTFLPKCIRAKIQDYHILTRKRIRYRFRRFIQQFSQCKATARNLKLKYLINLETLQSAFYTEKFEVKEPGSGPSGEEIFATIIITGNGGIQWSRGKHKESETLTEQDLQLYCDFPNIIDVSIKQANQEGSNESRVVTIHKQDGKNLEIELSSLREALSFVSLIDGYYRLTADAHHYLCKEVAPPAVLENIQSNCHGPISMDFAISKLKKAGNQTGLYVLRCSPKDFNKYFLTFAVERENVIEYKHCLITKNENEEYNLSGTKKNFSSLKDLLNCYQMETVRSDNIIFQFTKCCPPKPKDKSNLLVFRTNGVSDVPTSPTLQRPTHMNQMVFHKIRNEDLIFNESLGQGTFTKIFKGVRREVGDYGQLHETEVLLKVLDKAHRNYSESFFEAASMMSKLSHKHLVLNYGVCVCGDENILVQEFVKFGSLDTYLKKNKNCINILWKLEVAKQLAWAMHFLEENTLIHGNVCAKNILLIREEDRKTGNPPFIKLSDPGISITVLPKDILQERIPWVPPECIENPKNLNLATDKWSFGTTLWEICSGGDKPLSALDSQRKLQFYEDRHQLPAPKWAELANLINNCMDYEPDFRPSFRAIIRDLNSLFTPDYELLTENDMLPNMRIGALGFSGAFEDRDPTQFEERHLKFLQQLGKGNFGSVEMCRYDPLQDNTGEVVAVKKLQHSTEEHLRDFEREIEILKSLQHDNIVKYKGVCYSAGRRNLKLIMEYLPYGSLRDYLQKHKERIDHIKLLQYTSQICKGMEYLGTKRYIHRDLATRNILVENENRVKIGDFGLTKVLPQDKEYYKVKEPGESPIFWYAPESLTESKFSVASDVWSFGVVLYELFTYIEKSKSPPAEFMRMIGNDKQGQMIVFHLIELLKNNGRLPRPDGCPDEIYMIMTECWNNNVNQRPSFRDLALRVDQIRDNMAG
Your answer should be a plain number; it is taken to be in pM.

O=C(Nc1c[nH]nc1-c1cc(Cl)c(O)cc1OC(F)F)c1cnn2cccnc12 : 57
O=C(Nc1c[nH]nc1-c1cc(Cl)ccc1OC(F)F)c1cncc2c[nH]nc12 : 490
O=C(Nc1c[nH]nc1-c1cc(Br)ccc1OC(F)F)c1cnn2cccnc12 : 47
Cn1cc(NC(=O)c2cnn3cccnc23)c(-c2cc(Cl)ccc2OC(F)F)n1 : 88
O=C(Nc1c[nH]nc1-c1c(OC(F)F)ccc(Cl)c1F)c1cnn2cccnc12 : 160
CCc1ccc(OC(F)F)c(-c2n[nH]cc2NC(=O)c2cnn3cccnc23)c1 : 190

Record "COc1ccc(Cl)cc1-c1nn(C)cc1NC(=O)c1cncc2cccnc12" , field Ki: 620

// "Cc1ccn2ncc(C(=O)Nc3c[nH]nc3-c3cc(Cl)ccc3OC(F)F)c2n1" : Ki value = 100

Briefly, Ki measured for "O=C(Nc1c[nH]nc1-c1cc(Cl)ccc1OC(F)F)c1cnn2cccnc12" : 71

"O=C(Nc1c[nH]nc1-c1cc(Cl)ccc1OC(F)F)c1cnc2[nH]ccc2n1" yielded Ki of 960

Record summary for "Cn1cc(NC(=O)c2cnn3cccnc23)c(-c2cc(Cl)ccc2O)n1" : reported Ki = 13000

// recorded Ki for "O=C(Nc1c[nH]nc1-c1cc(Cl)ccc1SC(F)F)c1cnn2cccnc12" : 230

Item: "Cc1nc(-c2cc(Cl)ccc2OC(F)F)c(NC(=O)c2cnn3cccnc23)[nH]1" | Ki: 1100

The compound "N#Cc1ccc(OC(F)F)c(-c2n[nH]cc2NC(=O)c2cnn3cccnc23)c1" showed Ki equal to 270

Ki for "O=C(Nc1c[nH]nc1-c1cc(I)ccc1OC(F)F)c1cnn2cccnc12" is 45

Field Ki (entry "O=C(Nc1c[nH]nc1-c1cc(Cl)ccc1OC(F)F)c1cncc2ccoc12" ) reads 500

Entry under test: "COc1ccc(Cl)cc1-c1n[nH]cc1NC(=O)c1cnn2cccnc12" . Its Ki was 360

Sure, the documented Ki for "COc1ccc(Cl)cc1-c1nn(C)cc1NC(=O)c1cncc2[nH]cnc12" is 2600

Consider "COc1cc(F)c(Cl)cc1-c1n[nH]cc1NC(=O)c1cnn2cccnc12" . Its measured Ki is 790

Kindly note the recorded Ki for "Cn1cc(NC(=O)c2cnn3cccnc23)c(-c2cc(Cl)ccc2CO)n1" , which is 8600

Quick note, Ki for "O=C(Nc1c[nH]nc1-c1cc(Cl)ccc1OC(F)(F)F)c1cnn2cccnc12" landed at 490

Summary for this compound, "Nc1nn2cccnc2c1C(=O)Nc1c[nH]nc1-c1cc(Cl)ccc1OC(F)F" : Ki is 42

Per the records, this compound ( "O=C(Nc1c[nH]nc1-c1ccccc1OC(F)F)c1cnn2cccnc12" ) has Ki equal to 860

Noted for "Cc1ccc(OC(F)F)c(-c2n[nH]cc2NC(=O)c2cnn3cccnc23)c1" : its Ki reads 340

Ki reading for "O=C(Nc1c[nH]nc1-c1cc(Cl)ccc1OC(F)F)c1cnc2cccnn12" : 71
